Where these numbers come from: patent US20220275059A1

target: MERS-CoV S S1 subunit (MERS-S1) (MERS-CoV EMC isolate, UniProt K9N5Q8 19-748)
experimental-details: ForteBio Octet kinetic measurement (FIG. 3A)
measurement-kind: Kd

Some solved entries appear below for comparison.
7.2h5 (antibody, V domains shown) VH: QVQLVQSGAEVKKPGSSVKVSCKASGGTFSSYAISWVRQAPGQGLEWMGGIIPIFGTVKNAQKFQGRVTITADKSTGTAYMELSSLRSEDTAVYYCARDHYYDSNDYYWYFDLWGRGTLVTVSS VL: EIVMTQSPATLSVSPGERATLSCRASQSVSSNLAWYQKKPGQAPRLLIYGASTRVTGIPARFSGSGSGTEFTLTISSLQSEDFAVYYCQQYNNWPLTFGGGTKVEIKR : ~0.36 nM
1.10e9 (antibody, V domains shown) VH: QVQLQQSGPGLVKPSQTLSLTCAISGDSVSSNSAAWNWIRQSPSRGLEWLGRTYYRSKWYNDYAVSVKSRITINPNTSKNQFSLQLNPVTPEDTAVYFCAREWFGEGYFDLWGRGTLVTVSS VL: EIVMTQSPATLSVSPGESATLSCRASQTIYSNLAWYQRKPGQAPRLLIYRASTRATGIPARFSGSGSGTEFTLTISSLQSEDFAVYCCQQFNNWPYTFGQGTKLEIKR : ~0.44 nM

Consider the record given below.
The recorded Kd for entry 1.3g2 (antibody, V domains shown) VH: QVQLVQSGAEVKKPGSSVKVSCKASGGTFSTYAISWVRQAPGQGLEWMGGIIPIFGTANYAQKFQGRVTIIADKSTNTAYMDLSSLRSEDTAVYYCAREGNLGYDVVTGYSYFVYWGQGTLVTVSS VL: EIVLTQSPGTLSLSPGERATLSCRASQSVSSSYLAWYQQKPDQVPRLLIYGTSSRATGIPDRFSGSGSGTDFTLTISRLEPEDFAVYYCQQYGRSLTFGGGTKVEIKR equals ~1.1 nM
